Target of assay: Cytochrome P450 11B2, mitochondrial (Homo sapiens)
Sequence (P19099 whole entry): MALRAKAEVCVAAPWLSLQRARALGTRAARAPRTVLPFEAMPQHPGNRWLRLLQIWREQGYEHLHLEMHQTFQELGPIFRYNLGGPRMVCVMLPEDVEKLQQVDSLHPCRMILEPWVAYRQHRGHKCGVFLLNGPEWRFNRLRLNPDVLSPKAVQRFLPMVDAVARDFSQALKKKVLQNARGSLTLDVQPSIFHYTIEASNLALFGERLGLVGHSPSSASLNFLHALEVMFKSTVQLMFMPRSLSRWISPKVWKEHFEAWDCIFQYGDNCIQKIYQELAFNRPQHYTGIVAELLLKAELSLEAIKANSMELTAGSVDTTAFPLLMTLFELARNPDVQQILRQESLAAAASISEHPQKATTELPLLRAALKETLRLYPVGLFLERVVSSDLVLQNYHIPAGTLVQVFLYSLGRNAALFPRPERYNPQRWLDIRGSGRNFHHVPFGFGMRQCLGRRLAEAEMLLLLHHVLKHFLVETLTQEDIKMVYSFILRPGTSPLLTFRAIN
Assay summary: In vitro inhibition of [14C]deoxycorticosterone binding to human cytochrome P450 11B2 expressed in hamster V79 MZh cells
pIC50: −log10 of the molar value.
Readout kind: pIC50

[[record]]
chem_smiles = "Clc1ccc2c(c1)/C(=C/c1c[nH]cn1)CCC2"
readout_kind = "pIC50"
quantitative_readout = 7.33

[[record]]
chem_smiles = "N#Cc1ccc2c(c1)CC/C2=C/c1ncc[nH]1"
readout_kind = "pIC50"
quantitative_readout = 7.45

[[record]]
chem_smiles = "Brc1ccc2c(c1)CC/C2=C/c1c[nH]cn1"
readout_kind = "pIC50"
quantitative_readout = 7.99


====

Target of assay: Cytochrome P450 11B1, mitochondrial (Bos taurus)
Sequence (P15150 whole entry): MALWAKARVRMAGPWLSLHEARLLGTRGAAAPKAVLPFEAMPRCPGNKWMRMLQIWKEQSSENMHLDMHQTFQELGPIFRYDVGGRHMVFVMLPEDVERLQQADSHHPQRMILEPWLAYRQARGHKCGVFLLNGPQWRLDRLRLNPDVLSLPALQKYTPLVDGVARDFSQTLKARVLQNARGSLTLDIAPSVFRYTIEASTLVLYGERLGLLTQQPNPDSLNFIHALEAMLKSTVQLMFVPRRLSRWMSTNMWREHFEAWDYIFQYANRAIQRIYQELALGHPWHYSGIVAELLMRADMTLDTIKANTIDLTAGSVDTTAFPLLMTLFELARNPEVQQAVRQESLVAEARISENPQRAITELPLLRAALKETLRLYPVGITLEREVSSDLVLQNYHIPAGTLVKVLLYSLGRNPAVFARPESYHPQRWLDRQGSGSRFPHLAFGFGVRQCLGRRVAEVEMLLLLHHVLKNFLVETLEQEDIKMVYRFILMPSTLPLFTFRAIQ
Assay summary: In vitro inhibition against bovine cytochrome P450 11B with 200 uM corticosterone
Condition: cyp11b
Readout kind: Inhibition (%)

[[record]]
chem_smiles = "Clc1ccc2c(c1)/C(=C/c1c[nH]cn1)CCC2"
readout_kind = "Inhibition"
quantitative_readout = 66

[[record]]
chem_smiles = "N#Cc1ccc2c(c1)CC/C2=C/c1ncc[nH]1"
readout_kind = "Inhibition"
quantitative_readout = 100

[[record]]
chem_smiles = "Fc1ccc2c(c1)CC/C2=C/c1c[nH]cn1"
readout_kind = "Inhibition"
quantitative_readout = 64

[[record]]
chem_smiles = "Brc1ccc2c(c1)CC/C2=C/c1c[nH]cn1"
readout_kind = "Inhibition"
quantitative_readout = 88

[[record]]
chem_smiles = "N#Cc1ccc2c(c1)/C(=C/c1cnc[nH]1)CCC2"
readout_kind = "Inhibition"
quantitative_readout = 62

[[record]]
chem_smiles = "Clc1ccc2c(c1)CC/C2=C/c1c[nH]cn1"
readout_kind = "Inhibition"
quantitative_readout = 87

[[record]]
chem_smiles = "C(=C1\\CCCc2ccccc21)/c1c[nH]cn1"
readout_kind = "Inhibition"
quantitative_readout = 95

[[record]]
chem_smiles = "N#Cc1ccc2c(c1)/C(=C\\c1c[nH]cn1)CCC2"
readout_kind = "Inhibition"
quantitative_readout = 97


====

Target of assay: Steroid 17-alpha-hydroxylase/17,20 lyase (Homo sapiens)
Sequence (P05093 whole entry): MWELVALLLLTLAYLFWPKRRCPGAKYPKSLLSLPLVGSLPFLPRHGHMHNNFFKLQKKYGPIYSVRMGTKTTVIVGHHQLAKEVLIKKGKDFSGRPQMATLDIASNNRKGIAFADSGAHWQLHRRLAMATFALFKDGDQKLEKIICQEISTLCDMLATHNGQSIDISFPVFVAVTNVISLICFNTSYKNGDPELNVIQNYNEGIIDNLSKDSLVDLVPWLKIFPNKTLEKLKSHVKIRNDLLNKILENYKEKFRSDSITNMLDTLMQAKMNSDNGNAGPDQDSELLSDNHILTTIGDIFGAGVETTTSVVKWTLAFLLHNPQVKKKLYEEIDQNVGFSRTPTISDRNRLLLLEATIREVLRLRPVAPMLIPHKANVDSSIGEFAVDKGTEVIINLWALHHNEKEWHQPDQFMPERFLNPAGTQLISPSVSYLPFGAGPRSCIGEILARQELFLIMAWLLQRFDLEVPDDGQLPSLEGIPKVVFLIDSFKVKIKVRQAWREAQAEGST
Assay summary: In vitro inhibition against human […] cytochrome P450 17 expressed in Escherichia coli with 2.5 uM progesterone
The entries below come with measured Inhibition values attached.
Readout kind: Inhibition (%)

[[record]]
chem_smiles = "Brc1ccc2c(c1)CC/C2=C/c1c[nH]cn1"
value_unit = "%"
quantitative_readout = 15

[[record]]
chem_smiles = "N#Cc1ccc2c(c1)/C(=C/c1cnc[nH]1)CCC2"
value_unit = "%"
quantitative_readout = 2

[[record]]
chem_smiles = "C(=C1\\CCCc2ccccc21)/c1c[nH]cn1"
value_unit = "%"
quantitative_readout = 13

[[record]]
chem_smiles = "N#Cc1ccc2c(c1)CC/C2=C/c1ncc[nH]1"
value_unit = "%"
quantitative_readout = 4

[[record]]
chem_smiles = "Clc1ccc2c(c1)/C(=C/c1c[nH]cn1)CCC2"
value_unit = "%"
quantitative_readout = 24

[[record]]
chem_smiles = "N#Cc1ccc2c(c1)/C(=C\\c1c[nH]cn1)CCC2"
value_unit = "%"
quantitative_readout = 3

[[record]]
chem_smiles = "Clc1ccc2c(c1)CC/C2=C/c1c[nH]cn1"
value_unit = "%"
quantitative_readout = 26

[[record]]
chem_smiles = "Fc1ccc2c(c1)CC/C2=C/c1c[nH]cn1"
value_unit = "%"
quantitative_readout = 11


====

Target of assay: Cytochrome P450 11B1, mitochondrial (Homo sapiens, UniProt P15538)
Sequence (P15538 whole entry): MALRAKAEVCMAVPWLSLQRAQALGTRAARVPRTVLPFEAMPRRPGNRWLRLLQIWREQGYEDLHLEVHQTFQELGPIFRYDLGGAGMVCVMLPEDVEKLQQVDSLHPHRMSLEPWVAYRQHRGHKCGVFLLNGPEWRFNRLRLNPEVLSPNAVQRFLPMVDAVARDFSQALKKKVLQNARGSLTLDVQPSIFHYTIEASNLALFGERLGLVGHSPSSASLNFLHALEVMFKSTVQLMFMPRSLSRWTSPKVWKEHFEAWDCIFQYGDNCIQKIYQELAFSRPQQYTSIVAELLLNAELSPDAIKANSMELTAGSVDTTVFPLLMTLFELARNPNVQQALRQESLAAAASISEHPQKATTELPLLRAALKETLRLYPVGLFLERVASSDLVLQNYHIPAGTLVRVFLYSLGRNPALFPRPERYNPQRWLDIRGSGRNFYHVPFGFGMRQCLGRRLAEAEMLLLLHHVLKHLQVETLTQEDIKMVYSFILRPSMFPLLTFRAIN
Assay summary: In vitro inhibition of [14C]deoxycorticosterone binding to human cytochrome P450 11B1 expressed in hamster V79 MZh cells
Readout kind: IC50 (nM)

[[record]]
chem_smiles = "N#Cc1ccc2c(c1)CC/C2=C/c1ncc[nH]1"
value_unit = "nM"
quantitative_readout = 12.3


====

Target of assay: Aromatase (Homo sapiens)
Sequence (P11511 whole entry): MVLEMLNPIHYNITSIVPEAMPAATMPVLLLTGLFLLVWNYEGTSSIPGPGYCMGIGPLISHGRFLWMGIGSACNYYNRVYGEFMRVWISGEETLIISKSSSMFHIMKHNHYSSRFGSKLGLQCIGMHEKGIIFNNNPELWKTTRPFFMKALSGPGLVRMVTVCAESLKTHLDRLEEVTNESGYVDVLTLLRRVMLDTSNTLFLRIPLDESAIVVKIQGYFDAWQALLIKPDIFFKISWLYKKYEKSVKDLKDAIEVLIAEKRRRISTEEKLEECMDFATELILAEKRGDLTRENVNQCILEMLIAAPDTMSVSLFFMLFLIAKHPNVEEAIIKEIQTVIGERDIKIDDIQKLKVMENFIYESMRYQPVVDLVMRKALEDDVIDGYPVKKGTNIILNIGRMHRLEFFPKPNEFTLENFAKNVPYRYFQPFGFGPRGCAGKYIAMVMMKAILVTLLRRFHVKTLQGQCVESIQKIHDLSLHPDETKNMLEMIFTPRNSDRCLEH
Readout kind: log10 of IC50 (log10 of the value in nM)

[[record]]
chem_smiles = "Clc1ccc2c(c1)/C(=C/c1c[nH]cn1)CCC2"
quantitative_readout = 2.08

[[record]]
chem_smiles = "N#Cc1ccc2c(c1)/C(=C\\c1c[nH]cn1)CCC2"
quantitative_readout = 2.91

[[record]]
chem_smiles = "N#Cc1ccc2c(c1)/C(=C/c1cnc[nH]1)CCC2"
quantitative_readout = 2.99

[[record]]
chem_smiles = "Clc1ccc2c(c1)CC/C2=C/c1c[nH]cn1"
quantitative_readout = 1.59

[[record]]
chem_smiles = "C(=C1\\CCCc2ccccc21)/c1c[nH]cn1"
quantitative_readout = 2.28


====

The entries below come with measured Inhibition values attached.
Target of assay: Cytochrome P450 11B2, mitochondrial (Homo sapiens)
Assay summary: In vitro inhibition of human cytochrome P450 11B2 expressed in Schizosaccharomyces pombe with 500 nM deoxy-corticosterone
Readout kind: Inhibition (%)

[[record]]
chem_smiles = "N#Cc1ccc2c(c1)/C(=C\\c1c[nH]cn1)CCC2"
readout_kind = "Inhibition"
quantitative_readout = 23

[[record]]
chem_smiles = "Clc1ccc2c(c1)/C(=C/c1c[nH]cn1)CCC2"
readout_kind = "Inhibition"
quantitative_readout = 48

[[record]]
chem_smiles = "N#Cc1ccc2c(c1)/C(=C/c1cnc[nH]1)CCC2"
readout_kind = "Inhibition"
quantitative_readout = 8

[[record]]
chem_smiles = "N#Cc1ccc2c(c1)CC/C2=C/c1ncc[nH]1"
readout_kind = "Inhibition"
quantitative_readout = 65

[[record]]
chem_smiles = "C(=C1\\CCCc2ccccc21)/c1c[nH]cn1"
readout_kind = "Inhibition"
quantitative_readout = 82

[[record]]
chem_smiles = "Clc1ccc2c(c1)CC/C2=C/c1c[nH]cn1"
readout_kind = "Inhibition"
quantitative_readout = 80

[[record]]
chem_smiles = "Fc1ccc2c(c1)CC/C2=C/c1c[nH]cn1"
readout_kind = "Inhibition"
quantitative_readout = 58

[[record]]
chem_smiles = "Brc1ccc2c(c1)CC/C2=C/c1c[nH]cn1"
readout_kind = "Inhibition"
quantitative_readout = 76

